Values were extracted from ChEMBL document CHEMBL1201862.

Tested on: HOP-92
Assay: NCI tumour cell line growth inhibition, 48 h
Activity calls are given as the source filed them. No stated cut-off is given here; in the data, active = GI50 up to about 1.1 µM and inactive = higher.
readout: GI50

{"compound": "Cc1ccc(-c2c(C#N)c(N)nc3c2CCS(=O)(=O)c2ccccc2-3)cc1", "measurementTarget": "HOP-92", "readout": "GI50", "recordedMeasurement": "34.1 µM (inactive)"}
{"compound": "CN(C)CCCNC(=O)CCNC(=O)c1cc(NC(=O)c2cc(NC(=O)c3cc(NC(=O)c4nc(NC(=O)CCCNC(=O)c5cc(NC(=O)c6cc(NC(=O)c7cc(NC(=O)c8nccn8C)cn7C)cn6C)cn5C)cn4C)cn3C)cn2C)cn1C", "measurementTarget": "HOP-92", "readout": "GI50", "recordedMeasurement": "> 100 µM (inactive)"}
{"compound": "CC(C)CCNC(=O)c1ccc(CNC(=O)/C=C/c2ccc(OCc3ccccc3)cc2)cc1", "measurementTarget": "HOP-92", "readout": "GI50", "recordedMeasurement": "> 100 µM (inactive)"}
{"compound": "O=C1C=C(Cl)C(=O)C(c2ccc(Cl)cc2)=C1", "measurementTarget": "HOP-92", "readout": "GI50", "recordedMeasurement": "19.3 µM (inactive)"}
{"compound": "C/C=C/C=N/N(c1nnc(-c2ccccc2)c(-c2ccccc2)n1)S(=O)(=O)c1ccc(C)cc1", "measurementTarget": "HOP-92", "readout": "GI50", "recordedMeasurement": "16.2 µM (inactive)"}
{"compound": "C1CC2=C(C1)C1=S(S2)SC2=C1CCC2", "measurementTarget": "HOP-92", "readout": "GI50", "recordedMeasurement": "> 100 µM (inactive)"}
{"compound": "N#CCc1nnc(N)o1", "measurementTarget": "HOP-92", "readout": "GI50", "recordedMeasurement": "> 100 µM (inactive)"}
{"compound": "COc1ccc2c(c1)CCC(CN1CCN(CCOC(c3ccccc3)c3ccccc3)CC1)C2O (stereo unspecified)", "measurementTarget": "HOP-92", "readout": "GI50", "recordedMeasurement": "14.4 µM (inactive)"}
{"compound": "COc1cc(OC)c2nc(C)c3c(c2c1)OCC3", "measurementTarget": "HOP-92", "readout": "GI50", "recordedMeasurement": "40.6 µM (inactive)"}
{"compound": "CC1(C)CC(=O)c2c(nc3ccc4ccccc4c3c2-c2ccc(NC(=O)CCCCC(=O)Nc3ccc(-c4c5c(nc6ccc7ccccc7c46)CC(C)(C)CC5=O)cc3)cc2)C1", "measurementTarget": "HOP-92", "readout": "GI50", "recordedMeasurement": "> 100 µM (inactive)"}
{"compound": "N=C(N)NC(=N)Nc1ccc(S(N)(=O)=O)cc1", "measurementTarget": "HOP-92", "readout": "GI50", "recordedMeasurement": "> 100 µM (inactive)"}
{"compound": "Cc1cc2nc3c(C#N)c4c(c(Cl)n3c2cc1C)CCC4", "measurementTarget": "HOP-92", "readout": "GI50", "recordedMeasurement": "31.8 µM (inactive)"}
{"compound": "CC(=O)c1c(O)c(C)c(O)c(Cc2c(O)c3c(c(C(=O)/C=C/c4ccccc4)c2O)OC(C)(C)C=C3)c1O", "measurementTarget": "HOP-92", "readout": "GI50", "recordedMeasurement": "1.62 µM (inactive)"}
{"compound": "Cc1[nH]n(C(=N)N)c(=O)c1CCO", "measurementTarget": "HOP-92", "readout": "GI50", "recordedMeasurement": "> 100 µM (inactive)"}
{"compound": "Nc1c2c(=O)[nH]c(=O)c2c(N)c2c(=O)c3ccccc3c(=O)c12", "measurementTarget": "HOP-92", "readout": "GI50", "recordedMeasurement": "12.9 µM (inactive)"}
{"compound": "Nc1nc(Cl)cc(NCC2(CO)COC2)n1", "measurementTarget": "HOP-92", "readout": "GI50", "recordedMeasurement": "> 10 µM (inactive)"}
{"compound": "CN(C(=O)C1CC1)C1C2CN3CCC(O2)C13 (stereo unspecified)", "measurementTarget": "HOP-92", "readout": "GI50", "recordedMeasurement": "> 100 µM (inactive)"}
{"compound": "Cc1ccc(Nc2nc(C)c(C(=O)CC(=O)C(=O)Nc3ccc(Cl)cc3)s2)cc1", "measurementTarget": "HOP-92", "readout": "GI50", "recordedMeasurement": "> 100 µM (inactive)"}
{"compound": "C=C(CN(C)C)C1(c2ccccc2)CC2(CCCC2)C(=O)O1 (stereo unspecified)", "measurementTarget": "HOP-92", "readout": "GI50", "recordedMeasurement": "17.9 µM (inactive)"}
{"compound": "CC1=C2[C@@H](c3ccccc3)C3C=CC2(C=C3C(F)(F)F)N(C(=O)NC2CCCCC2)C1=O (stereo partly specified)", "measurementTarget": "HOP-92", "readout": "GI50", "recordedMeasurement": "> 100 µM (inactive)"}
{"compound": "CCOC(=O)/C1=C(\\C)N(c2ccc(C)cc2)C(=O)c2ccccc2C(=O)c2c(OC(C)=O)ccc(OC(C)=O)c21", "measurementTarget": "HOP-92", "readout": "GI50", "recordedMeasurement": "29.9 µM (inactive)"}
